assayOverview: Intrinsic clearance in human liver microsomes at 1 uM measured upto 30 mins by LC/MS analysis
Type: ADME, Microsome
conditionDetails: read-out: CLH (converted)
property: CLint scaled at 1 µM (mL/min/kg)

- molecule: "COc1c([C@H](C)n2nc(C)c3c(N)ncnc32)cc(Cl)c(C)c1C1CNC(=O)C1 (some centres undefined)"
  property: "CLint scaled at 1 µM"
  experimentalResult: 11.7
- molecule: "CCOc1c([C@H](C)n2nc(C)c3c(N)ncnc32)cc(Cl)c(F)c1[C@@H]1CNC(=O)C1 [PARSACLISIB]"
  property: "CLint scaled at 1 µM"
  experimentalResult: 11.7
- molecule: "CCOc1c([C@H](C)n2nc(C)c3c(N)ncnc32)cc(Cl)c(C)c1C1CNC(=O)C1 (some centres undefined)"
  property: "CLint scaled at 1 µM"
  experimentalResult: 11.7
- molecule: "CCOc1c([C@H](C)n2nc(C)c3c(N)ncnc32)cc(Cl)c(C#N)c1C1CNC(=O)C1 (some centres undefined)"
  property: "CLint scaled at 1 µM"
  experimentalResult: 11.7
